Assign IC50 to each entry below.
molecular target: NAMPT (Homo sapiens, UniProt P43490); construct: His tag; host or cells: E. coli; experiment: Biochemical inhibition assay: NAMPT enzymatic reaction, NMN quantified by mass spectrometry; conditions: NAMPT enzymatic reaction; read-out: Biochem IC50
Sequence (P43490 whole entry): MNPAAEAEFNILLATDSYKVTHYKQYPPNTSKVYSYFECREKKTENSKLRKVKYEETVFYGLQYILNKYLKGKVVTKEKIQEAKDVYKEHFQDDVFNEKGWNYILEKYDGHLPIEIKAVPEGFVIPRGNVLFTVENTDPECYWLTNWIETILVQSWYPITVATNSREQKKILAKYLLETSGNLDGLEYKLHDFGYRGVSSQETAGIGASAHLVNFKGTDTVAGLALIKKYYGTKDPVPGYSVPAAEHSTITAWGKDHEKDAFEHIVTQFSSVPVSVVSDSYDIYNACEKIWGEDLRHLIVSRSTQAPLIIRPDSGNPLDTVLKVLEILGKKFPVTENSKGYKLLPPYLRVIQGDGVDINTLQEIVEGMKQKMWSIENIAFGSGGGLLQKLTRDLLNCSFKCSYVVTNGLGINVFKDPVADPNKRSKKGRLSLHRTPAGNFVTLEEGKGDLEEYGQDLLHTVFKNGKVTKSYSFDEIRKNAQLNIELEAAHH
Value expressed in nM; do not type the unit.

**Q:** For Cc1c(F)cccc1S(=O)(=O)c1ccc(CNC(=O)c2cnc3nccn3c2)cc1 , write its IC50.
**A:** 8.1

**Q:** For O=C(NCc1ccc(S(=O)(=O)c2cc(F)ccc2Cl)cc1)c1cnc2nccn2c1 , write its IC50.
**A:** 10.5

**Q:** For CCCCOc1cccc(F)c1S(=O)(=O)c1ccc(CNC(=O)c2cc3ccncc3o2)cc1 , write its IC50.
**A:** 25.6

**Q:** For O=C(NCc1ccc(S(=O)(=O)c2cccc(F)c2F)cc1)c1cnc2[nH]ncc2c1 , write its IC50.
**A:** 82

**Q:** For COc1cc(OC)cc(S(=O)(=O)c2ccc(CNC(=O)c3cc4ccncc4o3)cc2)c1 , write its IC50.
**A:** 2.7

**Q:** For O=C(NCc1ccc(S(=O)(=O)CCCc2ccccc2)cc1)c1cc2cnccc2[nH]1 , write its IC50.
**A:** 14

**Q:** For Cc1ccc(S(=O)(=O)c2ccc(CNC(=O)c3cnc4nccn4c3)cc2)c(C)c1 , write its IC50.
**A:** 2.1

**Q:** For Cc1ccc(S(=O)(=O)c2ccc(CNC(=O)c3cc4cnccc4[nH]3)cc2)c(Cl)c1 , write its IC50.
**A:** 8

**Q:** For COc1ccc(F)cc1S(=O)(=O)c1ccc(CNC(=O)c2cc3ccncc3s2)cc1 , write its IC50.
**A:** 2

**Q:** For CCCCOc1ccc(S(=O)(=O)c2ccc(CNC(=O)c3cc4ccncc4o3)cc2)cc1Cl , write its IC50.
**A:** 4.7

**Q:** For O=C(NCc1ccc(S(=O)(=O)c2ccc(Cl)c(F)c2)cc1)c1cnc2nccn2c1 , write its IC50.
**A:** 1.9

**Q:** For COc1cccc(Cl)c1S(=O)(=O)c1ccc(CNC(=O)c2cc3ccncc3s2)cc1 , write its IC50.
**A:** 2.7

**Q:** For CCOc1cc(Cl)ccc1S(=O)(=O)c1ccc(CNC(=O)c2ccc3nccn3c2)cc1 , write its IC50.
**A:** 4.1

**Q:** For O=C(NCc1ccc(S(=O)(=O)c2ccccc2)cc1)c1ccc2ncccc2n1 , write its IC50.
**A:** 875

**Q:** For COc1c(F)cccc1S(=O)(=O)c1ccc(CNC(=O)c2cnc3[nH]ncc3c2)cc1 , write its IC50.
**A:** 121

**Q:** For Cc1ccc(F)cc1S(=O)(=O)c1ccc(CNC(=O)c2cnc3[nH]ncc3c2)cc1 , write its IC50.
**A:** 20.4

**Q:** For O=C(NCc1ccc(S(=O)(=O)c2c(Cl)cccc2Cl)cc1)c1cc2ccncc2s1 , write its IC50.
**A:** 7.6

**Q:** For COc1cccc(C)c1NS(=O)(=O)c1ccc(CNC(=O)c2cc3cnccc3[nH]2)cc1 , write its IC50.
**A:** 6

**Q:** For Cc1ccc(S(=O)(=O)c2ccc(CNC(=O)c3cc4ccncc4o3)cc2)c(C)c1 , write its IC50.
**A:** 21.8

**Q:** For O=C(NCc1ccc(S(=O)(=O)c2ccccc2Cl)cc1)c1cc2ccncc2s1 , write its IC50.
**A:** 2.4

**Q:** For CCOc1ccc(Cl)cc1S(=O)(=O)c1ccc(CNC(=O)c2cnc3nccn3c2)cc1 , write its IC50.
**A:** 1.9

**Q:** For CCCOc1ccc(S(=O)(=O)c2ccc(CNC(=O)c3cnc4[nH]ncc4c3)cc2)c(C)c1 , write its IC50.
**A:** 64.4

**Q:** For O=C(NCc1ccc(S(=O)(=O)c2ccccc2)cc1)c1cc2nccnc2s1 , write its IC50.
**A:** 52

**Q:** For CCc1cccc(S(=O)(=O)c2ccc(CNC(=O)c3cc4ccncc4s3)cc2)c1 , write its IC50.
**A:** 6

**Q:** For COc1cc(OC)cc(S(=O)(=O)c2ccc(CNC(=O)c3cnc4nccn4c3)cc2)c1 , write its IC50.
**A:** 2.4

**Q:** For COc1cccc(F)c1S(=O)(=O)c1ccc(CNC(=O)c2ccc3nccn3c2)cc1 , write its IC50.
**A:** 48.1

**Q:** For CCOc1ccccc1S(=O)(=O)c1ccc(CNC(=O)c2cnc3nccn3c2)cc1 , write its IC50.
**A:** 1

**Q:** For O=C(NCc1ccc(S(=O)(=O)c2ccc(F)c(F)c2)cc1)c1cc2ccncc2o1 , write its IC50.
**A:** 16.8

**Q:** For CCOc1ccc(S(=O)(=O)c2ccc(CNC(=O)c3cc4cnccc4[nH]3)cc2)c(C)c1 , write its IC50.
**A:** 9.2

**Q:** For O=C(NCc1ccc(S(=O)(=O)c2ccc(F)cc2F)cc1)c1ccc2nccn2c1 , write its IC50.
**A:** 28.3

**Q:** For COc1cc(Cl)c(C)cc1NS(=O)(=O)c1ccc(CNC(=O)c2cc3cnccc3[nH]2)cc1 , write its IC50.
**A:** 7840

**Q:** For COc1cc(C)c(S(=O)(=O)c2ccc(CNC(=O)c3ccc4nccn4c3)cc2)cc1C , write its IC50.
**A:** 28.1

**Q:** For COc1ccc(Cl)cc1S(=O)(=O)c1ccc(CNC(=O)c2cc3ccncc3s2)cc1 , write its IC50.
**A:** 4

**Q:** For CC(=O)c1ccc(S(=O)(=O)c2ccc(CNC(=O)c3cnc4nccn4c3)cc2)cc1 , write its IC50.
**A:** 5.2
